# Tested on: HCT116
# EXPERIMENT_DESCRIPTION: TCF/Wnt firefly luciferase reporter signal relative to plate median (fraction of plate median); higher = higher Wnt reporter signal
# CONDITION_SUMMARY: 10 µM; treatment time 24 h; reporter: TCF4/Wnt
Binary classification by TCF/Wnt firefly luciferase reporter signal, with 0.9 as an inclusive lower bound for 1; all other cases are -1.

Problem: Reported TCF/Wnt firefly luciferase reporter signal at or above 0.9? FC(F)c1nc2ccccc2n1-c1nc(N2CCOCC2)nc(N2CCOCC2)n1
Result: 1

Problem: Reported TCF/Wnt firefly luciferase reporter signal at or above 0.9? CNC(=O)c1ccccc1Nc1nc(Nc2ccc(N3CCOCC3)cc2OC)ncc1Cl
Result: 1

Problem: Reported TCF/Wnt firefly luciferase reporter signal at or above 0.9? Cc1cc(CN2CCN(c3c(Br)cnc4nc(-c5ccc(N6CCN(C)CC6)cc5)[nH]c34)CC2)no1
Result: 1

Problem: Reported TCF/Wnt firefly luciferase reporter signal at or above 0.9? CCN(CC)CCCCNc1ncc2cc(-c3cc(OC)cc(OC)c3)c(NC(=O)NC(C)(C)C)nc2n1
Result: -1

Problem: Reported TCF/Wnt firefly luciferase reporter signal at or above 0.9? CC(=O)Nc1cccc(-n2c(=O)n(C3CC3)c(=O)c3c(Nc4ccc(I)cc4F)n(C)c(=O)c(C)c32)c1
Result: 1

Problem: Reported TCF/Wnt firefly luciferase reporter signal at or above 0.9? O=C(Nc1cc(C(F)(F)F)cc(C(F)(F)F)c1)c1cc(Cl)ccc1O
Result: -1

Problem: Reported TCF/Wnt firefly luciferase reporter signal at or above 0.9? CCCNC(=O)Nc1ccc(Oc2ncnc3cc(OC)c(OC)cc23)cc1Cl
Result: 1

Problem: Reported TCF/Wnt firefly luciferase reporter signal at or above 0.9? COc1cc(Nc2c(C#N)cnc3cc(OCCCN4CCN(C)CC4)c(OC)cc23)c(Cl)cc1Cl [Bosutinib (SKI-606)]
Result: -1

Problem: Reported TCF/Wnt firefly luciferase reporter signal at or above 0.9? C=CC(=O)Nc1cccc(Oc2nc(Nc3ccc(N4CCN(C)CC4)cc3OC)ncc2Cl)c1
Result: -1

Problem: Reported TCF/Wnt firefly luciferase reporter signal at or above 0.9? CNC(=O)c1ccccc1Sc1ccc2c(/C=C/c3ccccn3)n[nH]c2c1 [Axitinib]
Result: 1

###

# Test system: HCT116
# EXPERIMENT_DESCRIPTION: cell viability (CellTiter-Glo) relative to plate median (fraction of plate median); higher = more viable cells
# CONDITION_SUMMARY: 5 µM; treatment time 24 h; reporter: TCF4/Wnt
READOUT_NAME: cell viability
The answer should be written as a number, with no unit following it.

Problem: Field request: cell viability | item: CCCCOc1ccc(OCCCN2CCOCC2)cc1
Result: 0.976

Problem: Field request: cell viability | item: CN1CCc2c(c3ccccc3n2Cc2ccccc2)C1
Result: 1.01

Problem: Field request: cell viability | item: CCCOc1ccccc1-c1nc2[nH]nnc2c(=O)[nH]1
Result: 0.973

Problem: Field request: cell viability | item: Oc1c(Cl)cc(Cl)cc1Sc1cc(Cl)cc(Cl)c1O
Result: 1.01

Problem: Field request: cell viability | item: O=C1[C@H](CC[C@H](O)c2ccc(F)cc2)[C@@H](c2ccc(O)cc2)N1c1ccc(F)cc1
Result: 1.01

###

# System: DLD1
# EXPERIMENT_DESCRIPTION: cell viability (CellTiter-Glo) relative to plate median (fraction of plate median); higher = more viable cells
# CONDITION_SUMMARY: 5 µM; treatment time 24 h; reporter: 7TFP
I'd be grateful if you could share measured cell viability for these entries.

Problem: Field request: cell viability | item: CC(=O)OCC(=O)[C@@]12OC3(CCCC3)O[C@@H]1C[C@H]1[C@@H]3CCC4=CC(=O)C=C[C@]4(C)[C@@]3(F)[C@@H](O)C[C@@]12C
Result: 0.985

Problem: Field request: cell viability | item: CCn1cc(C(=O)O)c(=O)c2cc(F)c(N3CCNCC3)nc21
Result: 1.05

Problem: Field request: cell viability | item: N[C@@H](CC(=O)N1CCn2c(nnc2C(F)(F)F)C1)Cc1cc(F)c(F)cc1F
Result: 1.09

Problem: Field request: cell viability | item: CCCCCCCC/C=C/CCCCCCCCOP(=O)([O-])OCC[N+](C)(C)C
Result: 0.984

Problem: Field request: cell viability | item: CCOC(=O)[C@H](CCc1ccccc1)N[C@@H](C)C(=O)N1[C@H](C(=O)O)C[C@H]2CCCC[C@@H]21
Result: 0.923

Problem: Field request: cell viability | item: Cc1ccccc1C(OCCN(C)C)c1ccccc1 (stereo not drawn)
Result: 1.07

Problem: Field request: cell viability | item: C[C@H](CCC(=O)O)[C@H]1CC[C@H]2[C@@H]3[C@@H](O)C[C@@H]4C[C@H](O)CC[C@]4(C)[C@H]3CC[C@]12C
Result: 0.966

Problem: Field request: cell viability | item: CC(=O)[C@@]1(O)CC[C@H]2[C@@H]3C[C@H](C)C4=CC(=O)C=C[C@]4(C)[C@@]3(F)[C@@H](O)C[C@@]21C
Result: 1.07

Problem: Field request: cell viability | item: O=C(O)CCCCCCCC(=O)O
Result: 1.01

Problem: Field request: cell viability | item: C=CCCCCCCCCC(=O)O
Result: 1.03

Problem: Field request: cell viability | item: CCSC(=N)N
Result: 0.954

Problem: Field request: cell viability | item: CC(C)[C@H](N)C(=O)OCCOCn1cnc2c(=O)nc(N)[nH]c21
Result: 1.01

Problem: Field request: cell viability | item: COc1ccc(C2CC(=O)c3ccc(OC)cc3O2)cc1 (stereo not drawn)
Result: 0.994

Problem: Field request: cell viability | item: CC[C@H](CC[C@@H](C)[C@H]1CC[C@H]2[C@@H]3CC=C4C[C@@H](O)CC[C@]4(C)[C@H]3CC[C@]12C)C(C)C
Result: 1.07

Problem: Field request: cell viability | item: O=C1c2ccccc2C(=O)C1c1ccccc1
Result: 1.02

Problem: Field request: cell viability | item: O=C(O)c1cc(=O)c2c(OCC(O)COc3cccc4oc(C(=O)O)cc(=O)c34)cccc2o1
Result: 1.04

Problem: Field request: cell viability | item: CCCNC(C)C(=O)Nc1ccccc1C (stereo not drawn)
Result: 1

Problem: Field request: cell viability | item: Nc1nnc(-c2cccc(Cl)c2Cl)c(N)n1
Result: 1.05

Problem: Field request: cell viability | item: CC(C)CCCCCCCCC1CC(=O)NC(CCC(=O)O)C(=O)NC(CC(C)C)C(=O)NC(CC(C)C)C(=O)NC(C(C)C)C(=O)NC(CC(=O)O)C(=O)NC(CC(C)C)C(=O)NC(CC(C)C)C(=O)O1 (stereo not drawn)
Result: 0.959

Problem: Field request: cell viability | item: CC(C)(C)NC[C@H](O)COc1nsnc1N1CCOCC1
Result: 0.966

Problem: Field request: cell viability | item: COc1ccc(C2CNC(=O)C2)cc1OC1CCCC1 (stereo not drawn)
Result: 0.992

Problem: Field request: cell viability | item: COC(=O)CCCOc1ccc(Cl)cc1Cl
Result: 0.984

Problem: Field request: cell viability | item: C1CCC(C(CC2CCCCN2)C2CCCCC2)CC1 (stereo not drawn)
Result: 1.05

Problem: Field request: cell viability | item: CC(C)[C@H]1CC[C@H](C(=O)N[C@H](Cc2ccccc2)C(=O)O)CC1
Result: 0.905

Problem: Field request: cell viability | item: COc1cc(CO)cc2c1C(=O)c1c(O)cc(O)cc1C2=O
Result: 0.883

Problem: Field request: cell viability | item: CC(C)CC1NC(=O)C2CCCN2C1=O (single isomer, unassigned; isomere) [Cyclo(leucylprolyl) (Isomere)]
Result: 0.919

Problem: Field request: cell viability | item: C#C[C@]1(O)CC[C@H]2[C@@H]3CCC4=C(CCC(=O)C4)[C@H]3CC[C@@]21C
Result: 0.905

Problem: Field request: cell viability | item: COc1ccc(-c2cc(=O)c3c(OC)c(OC)c(OC)c(OC)c3o2)cc1OC
Result: 0.9

###

# Tested on: DLD1
# EXPERIMENT_DESCRIPTION: TCF/Wnt firefly luciferase reporter signal relative to plate median (fraction of plate median); higher = higher Wnt reporter signal
# CONDITION_SUMMARY: 5 µM; treatment time 24 h; reporter: 7TFP
READOUT_NAME: TCF/Wnt firefly luciferase reporter signal

Problem: Field request: TCF/Wnt firefly luciferase reporter signal | item: CC(C)NCC(O)COc1cccc2ccccc12 (stereo not drawn)
Result: 1.01

Problem: Field request: TCF/Wnt firefly luciferase reporter signal | item: O=C1CN(/N=C/c2ccc(-c3ccc([N+](=O)[O-])cc3)o2)C(=O)N1
Result: 1

Problem: Field request: TCF/Wnt firefly luciferase reporter signal | item: Nc1cc(-c2ccncc2)c[nH]c1=O
Result: 0.903

Problem: Field request: TCF/Wnt firefly luciferase reporter signal | item: O=C(O)/C=C(\CC(=O)O)C(=O)O
Result: 1.11

Problem: Field request: TCF/Wnt firefly luciferase reporter signal | item: C/C=C/c1ccc(OC)cc1
Result: 0.925

Problem: Field request: TCF/Wnt firefly luciferase reporter signal | item: C[N+]1(CCCCC[N+]2(C)CCCC2)CCCC1
Result: 0.888

Problem: Field request: TCF/Wnt firefly luciferase reporter signal | item: CCOC(=O)[N-]c1c[n+](N2CCOCC2)no1
Result: 0.984

Problem: Field request: TCF/Wnt firefly luciferase reporter signal | item: COC(=O)C[C@H]1C2(C)CC34OC5(C)O[C@@]6([C@H](OC(C)=O)C(OC(C)=O)[C@]7(C)C(/C(=C(/O)C(C)C)C(=O)O[C@H]7c7ccoc7)[C@@]6(O5)[C@H](OC(C)=O)[C@@]3(O)C2OC(=O)C(C)C)[C@]14C (stereo partly drawn)
Result: 1.05

Problem: Field request: TCF/Wnt firefly luciferase reporter signal | item: CO/N=C(\C(=O)N[C@@H]1C(=O)N2C(C(=O)OC(C)OC(C)=O)=C(COC(N)=O)CS[C@H]12)c1ccco1 (stereo partly drawn)
Result: 0.981

Problem: Field request: TCF/Wnt firefly luciferase reporter signal | item: CO[C@H]1C[C@@H]2CC[C@@H](C)[C@@](O)(O2)C(=O)C(=O)N2CCCC[C@H]2C(=O)O[C@H]([C@H](C)C[C@@H]2CC[C@@H](O)[C@H](OC)C2)CC(=O)[C@H](C)/C=C(\C)[C@@H](O)[C@@H](OC)C(=O)[C@H](C)C[C@H](C)/C=C/C=C/C=C/1C
Result: 0.838

Problem: Field request: TCF/Wnt firefly luciferase reporter signal | item: N=C(N)NC(=O)c1nc(Cl)c(N)nc1N
Result: 0.937

Problem: Field request: TCF/Wnt firefly luciferase reporter signal | item: C[C@@H]1O[C@@H](O[C@H]2[C@H](O[C@H]3CC[C@@]4(C)[C@@H](CC[C@]5(C)[C@@H]4CC=C4[C@@H]6CC(C)(C)CC[C@]6(C(=O)O)CC[C@]45C)[C@]3(C)CO)OC[C@H](O)[C@@H]2O)[C@H](O)[C@H](O)[C@H]1O
Result: 1.04

Problem: Field request: TCF/Wnt firefly luciferase reporter signal | item: O=c1c(-c2ccc(O)cc2)coc2cc(O)ccc12
Result: 0.978

Problem: Field request: TCF/Wnt firefly luciferase reporter signal | item: CC(=O)O[C@H]1C[C@@]2(C)[C@H](c3ccoc3)OC(=O)[C@H]3O[C@]32[C@@]2(C)C1[C@]1(C)C(C[C@H]2OC(C)=O)C(C)(C)[C@H](OC(C)=O)C[C@@H]1OC(C)=O (stereo partly drawn) [11alpha-ACETOXYKHIVORIN]
Result: 1

Problem: Field request: TCF/Wnt firefly luciferase reporter signal | item: CC1=CC2C(C(C)C)CCC(C)(O)C2CC1 (stereo not drawn)
Result: 1.02

Problem: Field request: TCF/Wnt firefly luciferase reporter signal | item: C[C@@H]1C(=O)O[C@H]2C[C@@]34[C@H]5C[C@@H](C(C)(C)C)[C@]36[C@@H](OC(=O)[C@@H]6O)O[C@@]4(C(=O)O5)[C@]21O
Result: 1.15

Problem: Field request: TCF/Wnt firefly luciferase reporter signal | item: C#CCCCCCCCCCCCC(O)CC(O)CO.C=CCCCCCCCCCCCC(O)CC(O)CO (stereo not drawn)
Result: 1.05

Problem: Field request: TCF/Wnt firefly luciferase reporter signal | item: CC(C)=CCc1cccc2c(C[C@@H]3NC(=O)[C@H](C)NC3=O)c[nH]c12 [Terezine D]
Result: 1.12

Problem: Field request: TCF/Wnt firefly luciferase reporter signal | item: CN(C)[C@@H]1C(O)=C(C(=O)NCN2CCCC2)C(=O)[C@@]2(O)C(O)=C3C(=O)c4c(O)cccc4[C@@](C)(O)[C@H]3C[C@@H]12
Result: 0.858

Problem: Field request: TCF/Wnt firefly luciferase reporter signal | item: CCCCCC(=O)O[C@]1(C(C)=O)CC[C@H]2[C@@H]3CCC4=CC(=O)CC[C@]4(C)[C@H]3CC[C@@]21C
Result: 0.979

Problem: Field request: TCF/Wnt firefly luciferase reporter signal | item: OCc1ccccc1O
Result: 1.06

Problem: Field request: TCF/Wnt firefly luciferase reporter signal | item: O=C(O)C1=CC(=C(c2ccc(O)c(C(=O)O)c2)c2ccc(O)c(C(=O)O)c2)C=CC1=O
Result: 0.996

Problem: Field request: TCF/Wnt firefly luciferase reporter signal | item: COC(=O)C[C@H]1C(C)(C)C(=O)[C@@H]2CC3=C4CC(=O)O[C@@H](c5ccoc5)[C@]4(C)CC[C@@H]3[C@@]1(C)C2=O
Result: 0.924

Problem: Field request: TCF/Wnt firefly luciferase reporter signal | item: COc1ccc2c(C)cc(=O)oc2c1
Result: 0.803

Problem: Field request: TCF/Wnt firefly luciferase reporter signal | item: CC1=CCc2c(cc3oc(C)cc(=O)c3c2O)OC1
Result: 1.18

Problem: Field request: TCF/Wnt firefly luciferase reporter signal | item: CCN1CCN(c2cc3c(cc2F)c(=O)c(C(=O)O)cn3C2CC2)CC1
Result: 1.05

Problem: Field request: TCF/Wnt firefly luciferase reporter signal | item: O=c1n(CCCN2CCN(c3cccc(Cl)c3)CC2)nc2ccccn12
Result: 1.08

Problem: Field request: TCF/Wnt firefly luciferase reporter signal | item: Cc1ncc([N+](=O)[O-])n1CCO
Result: 1.06
